This collection of values is drawn from PubChem BioAssay AID2060889.

System: LG0567-F671-PDC complex spheroids viability
Experiment: Anticancer human tumor LG0567-F671-PDC patient-derived lung adenocarcinoma cell line growth inhibition [RAS]
Conditions: second compound 1 µM; first compound 0.316 µM; active compounds read low
Binned viability, T/C; ranges: lowest: < 10%; middle: ≥ 10% and < 20%; highest: ≥ 20%

Examples from the recorded data:
CC(=O)OC12COC1CC(O)C1(C)C(=O)C(O)C3=C(C)C(OC(=O)C(O)C(NC(=O)OC(C)(C)C)c4ccccc4)CC(O)(C(OC(=O)c4ccccc4)C21)C3(C)C (centres undefined) + C=CC(=O)N1CCN(c2nc(OCC3CCCN3C)nc3c(F)c(-c4nc(N)cc(C)c4C(F)(F)F)c(Cl)cc23)C(C)C1; middle
C=CC(=O)N1CCN(c2nc(OCC3CCCN3C)nc3c(F)c(-c4nc(N)cc(C)c4C(F)(F)F)c(Cl)cc23)C(C)C1 (centres undefined) + C#Cc1c(F)ccc2cc(O)cc(-c3ncc4c(N5CC6CCC(C5)N6)nc(OCC56CCCN5CC(F)C6)nc4c3F)c12; lowest
CCC(CC)c1cc(NC2CCC(N)C2)n2nccc2n1 (centres undefined) + C#Cc1c(F)ccc2cc(O)cc(-c3ncc4c(N5CC6CCC(C5)N6)nc(OCC56CCCN5CC(F)C6)nc4c3F)c12; highest
Cc1nc(N2CCC3(CC2)COC(C)C3N)c(CO)nc1Sc1ccnc(N)c1Cl (centres undefined) + C#Cc1c(F)ccc2cc(O)cc(-c3ncc4c(N5CC6CCC(C5)N6)nc(OCC56CCCN5CC(F)C6)nc4c3F)c12; middle
C=CC(=O)Nc1cc(Nc2nccc(-c3cn(C)c4ccccc34)n2)c(OC)cc1N(C)CCN(C)C + C#Cc1c(F)ccc2cc(O)cc(-c3ncc4c(N5CC6CCC(C5)N6)nc(OCC56CCCN5CC(F)C6)nc4c3F)c12; middle
CCN1CCN(Cc2ccc(Nc3ncc(F)c(-c4cc(F)c5nc(C)n(C(C)C)c5c4)n3)nc2)CC1 + C=CC(=O)N1CCN(c2nc(OCC3CCCN3C)nc3c(F)c(-c4nc(N)cc(C)c4C(F)(F)F)c(Cl)cc23)C(C)C1; middle
CC1(O)CCCC1n1c(=O)c(C(F)F)cc2cnc(NC3CCN(S(C)(=O)=O)CC3)nc21 (centres undefined) + C=CC(=O)N1CCN(c2nc(OCC3CCCN3C)nc3c(F)c(-c4nc(N)cc(C)c4C(F)(F)F)c(Cl)cc23)C(C)C1; middle
CCC(CC)c1cc(NC2CCC(N)C2)n2nccc2n1 (centres undefined) + C=CC(=O)N1CCN(c2nc(OCC3CCCN3C)nc3c(F)c(-c4nc(N)cc(C)c4C(F)(F)F)c(Cl)cc23)C(C)C1; middle
CC(=O)OC12COC1CC(O)C1(C)C(=O)C(O)C3=C(C)C(OC(=O)C(O)C(NC(=O)OC(C)(C)C)c4ccccc4)CC(O)(C(OC(=O)c4ccccc4)C21)C3(C)C (centres undefined) + C#Cc1c(F)ccc2cc(O)cc(-c3ncc4c(N5CC6CCC(C5)N6)nc(OCC56CCCN5CC(F)C6)nc4c3F)c12; highest
C[C@@H](NC(=O)c1ncnc(N)c1Cl)c1ncc(C(=O)Nc2cc(C(F)(F)F)c(Cl)cn2)s1 + C#Cc1c(F)ccc2cc(O)cc(-c3ncc4c(N5CC6CCC(C5)N6)nc(OCC56CCCN5CC(F)C6)nc4c3F)c12; highest

Tag the class for O=C(c1ccc(F)c(F)c1Nc1ccc(I)cc1F)N1CC(O)([C@@H]2CCCCN2)C1 + C#Cc1c(F)ccc2cc(O)cc(-c3ncc4c(N5CC6CCC(C5)N6)nc(OCC56CCCN5CC(F)C6)nc4c3F)c12
lowest

Tag the class for NC1c2ccccc2OC12CCN(c1cnc3c(N4CCCc5ncccc54)n[nH]c3n1)CC2 (centres undefined) + C=CC(=O)N1CCN(c2nc(OCC3CCCN3C)nc3c(F)c(-c4nc(N)cc(C)c4C(F)(F)F)c(Cl)cc23)C(C)C1
lowest

Tag the class for C=CC(=O)Nc1cc(Nc2nccc(-c3cn(C)c4ccccc34)n2)c(OC)cc1N(C)CCN(C)C + C=CC(=O)N1CCN(c2nc(OCC3CCCN3C)nc3c(F)c(-c4nc(N)cc(C)c4C(F)(F)F)c(Cl)cc23)C(C)C1
lowest

Tag the class for CC1(O)CCCC1n1c(=O)c(C(F)F)cc2cnc(NC3CCN(S(C)(=O)=O)CC3)nc21 (centres undefined) + C#Cc1c(F)ccc2cc(O)cc(-c3ncc4c(N5CC6CCC(C5)N6)nc(OCC56CCCN5CC(F)C6)nc4c3F)c12
highest

---

Test system: LG0567-F671-PDC complex spheroids viability
Assay: Anticancer human tumor LG0567-F671-PDC cell line growth inhibition [RAS];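 note: spheroids exposed to compound for seven days before readout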
Settings: second compound 0.316 µM; first compound 0.0316 µM; active compounds read low
METRIC: viability, T/C

Completed entries (count: 6):
CC1(O)CCCC1n1c(=O)c(C(F)F)cc2cnc(NC3CCN(S(C)(=O)=O)CC3)nc21 (stereo not drawn) + C#Cc1c(F)ccc2cc(O)cc(-c3ncc4c(N5CC6CCC(C5)N6)nc(OCC56CCCN5CC(F)C6)nc4c3F)c12; 56.1%
C=CC(=O)Nc1cc(Nc2nccc(-c3cn(C)c4ccccc34)n2)c(OC)cc1N(C)CCN(C)C + C=CC(=O)N1CCN(c2nc(OCC3CCCN3C)nc3c(F)c(-c4nc(N)cc(C)c4C(F)(F)F)c(Cl)cc23)C(C)C1; 9.92%
NC1c2ccccc2OC12CCN(c1cnc3c(N4CCCc5ncccc54)n[nH]c3n1)CC2 (stereo not drawn) + C=CC(=O)N1CCN(c2nc(OCC3CCCN3C)nc3c(F)c(-c4nc(N)cc(C)c4C(F)(F)F)c(Cl)cc23)C(C)C1; 5.55%
Cc1nc(N2CCC3(CC2)COC(C)C3N)c(CO)nc1Sc1ccnc(N)c1Cl (stereo not drawn) + C#Cc1c(F)ccc2cc(O)cc(-c3ncc4c(N5CC6CCC(C5)N6)nc(OCC56CCCN5CC(F)C6)nc4c3F)c12; 35.3%
C=CC(=O)Nc1cc(Nc2nccc(-c3cn(C)c4ccccc34)n2)c(OC)cc1N(C)CCN(C)C + C#Cc1c(F)ccc2cc(O)cc(-c3ncc4c(N5CC6CCC(C5)N6)nc(OCC56CCCN5CC(F)C6)nc4c3F)c12; 42.8%
CC(C)NCC(C(=O)N1CCN(c2ncnc3c2C(C)CC3O)CC1)c1ccc(Cl)cc1 (stereo not drawn) + C=CC(=O)N1CCN(c2nc(OCC3CCCN3C)nc3c(F)c(-c4nc(N)cc(C)c4C(F)(F)F)c(Cl)cc23)C(C)C1; 14.9%

Could you tell me which viability, T/C is on file for CC1(O)CCCC1n1c(=O)c(C(F)F)cc2cnc(NC3CCN(S(C)(=O)=O)CC3)nc21 (stereo not drawn) + C=CC(=O)N1CCN(c2nc(OCC3CCCN3C)nc3c(F)c(-c4nc(N)cc(C)c4C(F)(F)F)c(Cl)cc23)C(C)C1 ?
14.5%

Could you tell me which viability, T/C is on file for CCC(CC)c1cc(NC2CCC(N)C2)n2nccc2n1 (stereo not drawn) + C#Cc1c(F)ccc2cc(O)cc(-c3ncc4c(N5CC6CCC(C5)N6)nc(OCC56CCCN5CC(F)C6)nc4c3F)c12 ?
60.3%

Could you tell me which viability, T/C is on file for CC(Nc1ccc2c(c1)OCCn1cc(N3C(=O)OCC3C(F)F)nc1-2)C(N)=O (stereo not drawn) + C#Cc1c(F)ccc2cc(O)cc(-c3ncc4c(N5CC6CCC(C5)N6)nc(OCC56CCCN5CC(F)C6)nc4c3F)c12 ?
53.1%

Could you tell me which viability, T/C is on file for O=C(c1ccc(F)c(F)c1Nc1ccc(I)cc1F)N1CC(O)([C@@H]2CCCCN2)C1 + C#Cc1c(F)ccc2cc(O)cc(-c3ncc4c(N5CC6CCC(C5)N6)nc(OCC56CCCN5CC(F)C6)nc4c3F)c12 ?
30.7%

Could you tell me which viability, T/C is on file for NC1c2ccccc2OC12CCN(c1cnc3c(N4CCCc5ncccc54)n[nH]c3n1)CC2 (stereo not drawn) + C#Cc1c(F)ccc2cc(O)cc(-c3ncc4c(N5CC6CCC(C5)N6)nc(OCC56CCCN5CC(F)C6)nc4c3F)c12 ?
13.9%

Could you tell me which viability, T/C is on file for CCN1CCN(Cc2ccc(Nc3ncc(F)c(-c4cc(F)c5nc(C)n(C(C)C)c5c4)n3)nc2)CC1 + C#Cc1c(F)ccc2cc(O)cc(-c3ncc4c(N5CC6CCC(C5)N6)nc(OCC56CCCN5CC(F)C6)nc4c3F)c12 ?
46.8%

Could you tell me which viability, T/C is on file for CC(Nc1ccc2c(c1)OCCn1cc(N3C(=O)OCC3C(F)F)nc1-2)C(N)=O (stereo not drawn) + C=CC(=O)N1CCN(c2nc(OCC3CCCN3C)nc3c(F)c(-c4nc(N)cc(C)c4C(F)(F)F)c(Cl)cc23)C(C)C1 ?
10.5%
